All values here come from the supplement of paper PMC6555819.

- Test system: PXR homodimer (NR concentration 270 nM)
- method description: PBM binding z-score (relative to random genomic background probes); higher = stronger binding; sequences stand for … in GC…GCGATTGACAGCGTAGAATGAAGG
Class membership depends on PBM binding z-score alone; the intervals are bucket A: < 0.09; bucket B: ≥ 0.09 and < 1; bucket C: ≥ 1

Into which bin does this sequence go? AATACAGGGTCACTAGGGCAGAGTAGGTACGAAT
bucket C

Into which bin does this sequence go? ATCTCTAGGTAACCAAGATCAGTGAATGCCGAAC
bucket B

Into which bin does this sequence go? GCTATTAGTTGAAAGAGCAACCGAATGATTCTCG
bucket A

Into which bin does this sequence go? CGCCCAAGGTCAGAGAGGTCAGTGAATGCCGAGT
bucket C

Into which bin does this sequence go? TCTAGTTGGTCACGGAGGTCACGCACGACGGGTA
bucket C

Into which bin does this sequence go? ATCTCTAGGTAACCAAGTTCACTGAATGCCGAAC
bucket C

Into which bin does this sequence go? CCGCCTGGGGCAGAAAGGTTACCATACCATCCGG
bucket A

Into which bin does this sequence go? CCTTACGGGTCACTCCAGGTTAAAGCATCGGAGT
bucket B

Into which bin does this sequence go? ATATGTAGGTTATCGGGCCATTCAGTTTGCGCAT
bucket C

Into which bin does this sequence go? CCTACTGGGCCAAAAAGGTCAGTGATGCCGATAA
bucket B

Into which bin does this sequence go? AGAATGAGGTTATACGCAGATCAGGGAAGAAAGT
bucket B

Into which bin does this sequence go? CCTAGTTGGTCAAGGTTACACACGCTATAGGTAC
bucket C

Into which bin does this sequence go? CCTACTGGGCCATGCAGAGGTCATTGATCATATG
bucket C

Into which bin does this sequence go? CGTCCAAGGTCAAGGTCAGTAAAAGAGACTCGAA
bucket C

Into which bin does this sequence go? AGAACGAGGGCACGCTGAATTGATAGCAGAGTAG
bucket A

Into which bin does this sequence go? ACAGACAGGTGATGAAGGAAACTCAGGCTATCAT
bucket A

Into which bin does this sequence go? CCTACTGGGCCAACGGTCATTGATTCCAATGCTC
bucket A

Into which bin does this sequence go? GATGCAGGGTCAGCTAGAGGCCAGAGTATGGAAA
bucket A

====

- Tested on: LXRa homodimer (NR concentration 270 nM)
- method description: PBM binding z-score (relative to random genomic background probes); higher = stronger binding; sequences stand for … in GC…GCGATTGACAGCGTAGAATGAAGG
measured quantity: PBM binding z-score
Hey, just send me the number, nothing else.

The reported value for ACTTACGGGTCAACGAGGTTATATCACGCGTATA in terms of PBM binding z-score is 1.5

The reported value for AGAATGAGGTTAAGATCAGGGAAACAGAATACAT in terms of PBM binding z-score is -0.0625

The reported value for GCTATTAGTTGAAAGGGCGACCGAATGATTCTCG in terms of PBM binding z-score is -0.118

The reported value for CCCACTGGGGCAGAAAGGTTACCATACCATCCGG in terms of PBM binding z-score is -0.148

The reported value for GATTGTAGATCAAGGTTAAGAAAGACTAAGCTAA in terms of PBM binding z-score is -0.364

The reported value for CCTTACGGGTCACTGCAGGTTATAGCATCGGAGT in terms of PBM binding z-score is 1.13

====

- Test system: PPARg:RXRa 30nM:10nM, anti-RXR (NR concentration 30 nM, RXRa partner concentration 10 nM)
- method description: PBM binding z-score (relative to random genomic background probes); higher = stronger binding; sequences stand for … in GC…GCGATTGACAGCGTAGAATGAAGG
measured quantity: PBM binding z-score
Hey, just send me the number, nothing else.

Per the reported PPARg:RXRa 30nM:10nM, anti-RXR (NR concentration 30 nM, RXRa partner concentration 10 nM) data, TCTTCTAGATCAAGCAGGTTAAGAAAGCCTGAGT has PBM binding z-score of 3.16

Per the reported PPARg:RXRa 30nM:10nM, anti-RXR (NR concentration 30 nM, RXRa partner concentration 10 nM) data, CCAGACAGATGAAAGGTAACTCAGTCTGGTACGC has PBM binding z-score of 0.636

Per the reported PPARg:RXRa 30nM:10nM, anti-RXR (NR concentration 30 nM, RXRa partner concentration 10 nM) data, CGTCCATGGTCAAAGGTCAGTGAAGAGATGACGG has PBM binding z-score of 5.64

Per the reported PPARg:RXRa 30nM:10nM, anti-RXR (NR concentration 30 nM, RXRa partner concentration 10 nM) data, ACTTGTTGGTCAGCTGAGGTCACACACAATTCGG has PBM binding z-score of 0.673

Per the reported PPARg:RXRa 30nM:10nM, anti-RXR (NR concentration 30 nM, RXRa partner concentration 10 nM) data, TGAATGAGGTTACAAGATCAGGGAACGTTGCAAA has PBM binding z-score of 1.05

Per the reported PPARg:RXRa 30nM:10nM, anti-RXR (NR concentration 30 nM, RXRa partner concentration 10 nM) data, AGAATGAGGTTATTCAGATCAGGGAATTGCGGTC has PBM binding z-score of 0.851

Per the reported PPARg:RXRa 30nM:10nM, anti-RXR (NR concentration 30 nM, RXRa partner concentration 10 nM) data, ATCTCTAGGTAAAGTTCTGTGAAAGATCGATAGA has PBM binding z-score of 0.571

Per the reported PPARg:RXRa 30nM:10nM, anti-RXR (NR concentration 30 nM, RXRa partner concentration 10 nM) data, CCTGCTAGCTCAATGGTCAGCTAAAGCAGCTCGC has PBM binding z-score of -0.854

Per the reported PPARg:RXRa 30nM:10nM, anti-RXR (NR concentration 30 nM, RXRa partner concentration 10 nM) data, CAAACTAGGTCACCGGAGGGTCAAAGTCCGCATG has PBM binding z-score of 4.96

Per the reported PPARg:RXRa 30nM:10nM, anti-RXR (NR concentration 30 nM, RXRa partner concentration 10 nM) data, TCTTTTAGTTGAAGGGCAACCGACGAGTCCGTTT has PBM binding z-score of 3.65

Per the reported PPARg:RXRa 30nM:10nM, anti-RXR (NR concentration 30 nM, RXRa partner concentration 10 nM) data, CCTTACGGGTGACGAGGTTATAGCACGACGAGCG has PBM binding z-score of -0.0114

Per the reported PPARg:RXRa 30nM:10nM, anti-RXR (NR concentration 30 nM, RXRa partner concentration 10 nM) data, TGAATTAGGTTAAAGATCAGGGAACGTGGCGTCG has PBM binding z-score of 5.99

Per the reported PPARg:RXRa 30nM:10nM, anti-RXR (NR concentration 30 nM, RXRa partner concentration 10 nM) data, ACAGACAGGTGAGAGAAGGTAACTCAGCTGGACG has PBM binding z-score of 0.0838

Per the reported PPARg:RXRa 30nM:10nM, anti-RXR (NR concentration 30 nM, RXRa partner concentration 10 nM) data, TCTAGTTGGTCAAAGGTCCCACACTCGAAATGCG has PBM binding z-score of 6.42

Per the reported PPARg:RXRa 30nM:10nM, anti-RXR (NR concentration 30 nM, RXRa partner concentration 10 nM) data, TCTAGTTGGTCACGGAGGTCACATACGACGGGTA has PBM binding z-score of 3.8

Per the reported PPARg:RXRa 30nM:10nM, anti-RXR (NR concentration 30 nM, RXRa partner concentration 10 nM) data, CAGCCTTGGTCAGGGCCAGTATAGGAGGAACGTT has PBM binding z-score of -0.686

Per the reported PPARg:RXRa 30nM:10nM, anti-RXR (NR concentration 30 nM, RXRa partner concentration 10 nM) data, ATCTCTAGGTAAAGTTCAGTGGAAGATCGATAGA has PBM binding z-score of 2.32

Per the reported PPARg:RXRa 30nM:10nM, anti-RXR (NR concentration 30 nM, RXRa partner concentration 10 nM) data, ATAACAAGGTGATCGTGAGGTCGTTGATACTAAC has PBM binding z-score of 0.235

Per the reported PPARg:RXRa 30nM:10nM, anti-RXR (NR concentration 30 nM, RXRa partner concentration 10 nM) data, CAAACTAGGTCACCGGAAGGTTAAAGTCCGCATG has PBM binding z-score of 5.78

Per the reported PPARg:RXRa 30nM:10nM, anti-RXR (NR concentration 30 nM, RXRa partner concentration 10 nM) data, ACTAGTTGGTTAGCTGAGGTCACACACAATTCGG has PBM binding z-score of 0.884
